Items are presented alongside their recorded log10 IC50.
biological target: androgen receptor (AR) (Homo sapiens, UniProt P10275, T878A); assay: eGFP cellular AR transcription assay (LNCaP eGFP cells, LN-ARR2PB-eGFP); conditions: eGFP IC50 (μM), Series 1
Give log10 of IC50, with IC50 taken in µM.

Some entries whose results are on file:
# smi, log10 IC50
records = [
    ("Clc1ncn(-c2csc(N3CCOCC3)n2)c1I", 0.39),
    ("c1ccc(-c2ccc(N3CCOCC3)s2)cc1", -0.28),
    ("CC(C)Oc1c(F)cccc1-c1csc(N2CCOCC2)n1", 0.72),
    ("c1ccc(-c2csc(N3CCOCC3)n2)nc1", 0.40),
]

Please turn your attention to the following entry.
Provide measured log10 IC50 value, entry: c1ccc(-c2csc(N3CCCCC3)n2)cc1
0.01

###

Molecular target: androgen receptor (AR) (Homo sapiens, UniProt P10275, T878A)
Sequence (P10275 1-920 T878A): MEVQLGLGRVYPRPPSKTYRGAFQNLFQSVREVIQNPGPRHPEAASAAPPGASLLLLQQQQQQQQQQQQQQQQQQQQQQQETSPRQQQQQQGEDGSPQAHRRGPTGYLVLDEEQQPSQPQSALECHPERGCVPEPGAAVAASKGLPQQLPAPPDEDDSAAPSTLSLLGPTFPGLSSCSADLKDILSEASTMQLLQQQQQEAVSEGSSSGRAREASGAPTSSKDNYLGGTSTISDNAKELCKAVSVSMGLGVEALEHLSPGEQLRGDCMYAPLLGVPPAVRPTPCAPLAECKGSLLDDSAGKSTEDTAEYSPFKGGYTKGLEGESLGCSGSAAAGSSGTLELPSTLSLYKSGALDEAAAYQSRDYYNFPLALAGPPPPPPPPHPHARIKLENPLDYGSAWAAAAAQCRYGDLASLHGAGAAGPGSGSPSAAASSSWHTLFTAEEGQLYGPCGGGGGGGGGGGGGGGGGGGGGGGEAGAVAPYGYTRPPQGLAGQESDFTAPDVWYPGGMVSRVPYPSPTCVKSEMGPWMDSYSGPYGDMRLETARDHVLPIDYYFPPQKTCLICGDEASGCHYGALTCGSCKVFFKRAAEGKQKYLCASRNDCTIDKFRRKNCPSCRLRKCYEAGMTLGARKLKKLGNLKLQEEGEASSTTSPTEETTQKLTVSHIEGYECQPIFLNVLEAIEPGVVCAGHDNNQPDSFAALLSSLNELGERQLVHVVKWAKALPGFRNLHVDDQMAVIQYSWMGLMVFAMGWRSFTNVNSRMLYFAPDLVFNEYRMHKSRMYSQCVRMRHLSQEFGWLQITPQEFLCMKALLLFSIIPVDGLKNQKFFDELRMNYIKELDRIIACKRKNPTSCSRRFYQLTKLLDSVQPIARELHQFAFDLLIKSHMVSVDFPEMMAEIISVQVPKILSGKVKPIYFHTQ
Assay: eGFP cellular AR transcription assay (LNCaP eGFP cells, LN-ARR2PB-eGFP)
Details: read-out: eGFP IC50
# note: exactly 2000 nM is not below, so it is False; use True for IC50 strictly under it

# compound, label value
measured = [
    ("Clc1ccc(-c2csc(N3CCOCC3)n2)c(Cl)c1 [Compound 14263]", "True"),
]

A record lists COc1ccc(-c2nc(-c3ccccc3)cs2)cc1 [Compound 14419] . Is its IC50 below 2000 nM?
False

A record lists c1ccc2c(c1)ncn2-c1csc(N2CCOCC2)n1 [Compound 14509] . Is its IC50 below 2000 nM?
True

A record lists Clc1ccc(-c2csc(N3CCOCC3)n2)cc1Cl [Compound 14266] . Is its IC50 below 2000 nM?
False

A record lists FC(F)(F)C1CN(c2nc(-c3ccccc3)cs2)CCO1 (stereo not drawn) [Compound 14250] . Is its IC50 below 2000 nM?
True

A record lists Oc1cc(F)ccc1-c1csc(N2CCOCC2)n1 [Compound 14364] . Is its IC50 below 2000 nM?
True

###

molecular target: androgen receptor (AR) (Homo sapiens, UniProt P10275, T878A); assay: eGFP cellular AR transcription assay (LNCaP eGFP cells, LN-ARR2PB-eGFP)
measurement type: % Inhibition (3 μM) (%)
Give a bare numeral; the unit % is implied.

# compound, unit of measurement, result value
records = [
    ("CCc1sc(N2CCOCC2)nc1-c1ccccc1", "%", 52.34),
    ("CN1CCN(c2nc(-c3ccccc3)cs2)CC1", "%", 19.33),
    ("CC1CN(c2nc(-c3ccc([N+](=O)[O-])cc3)cs2)C(C)CO1 (stereo not shown)", "%", 3.73),
    ("Clc1ccccc1-c1csc(N2CCOCC2)n1", "%", 45.04),
    ("COc1ccccc1-c1nc(N2CCOCC2)sc1C", "%", 29.03),
    ("Fc1ccc(F)c(-c2csc(N3CCOCC3)n2)c1", "%", 96.6),
]

Provide measured % Inhibition (3 μM) value, entry: c1cc2c(cc1-c1csc(N3CCOCC3)n1)COC2
29.04

Provide measured % Inhibition (3 μM) value, entry: COc1ccc(-c2csc(-c3c[nH]c4ccccc34)n2)cc1
25.15

Provide measured % Inhibition (3 μM) value, entry: c1ccc2cc(-c3csc(N4CCOCC4)n3)ccc2c1
38.78

Provide measured % Inhibition (3 μM) value, entry: Cc1ccc(-c2csc(N3CCOCC3)n2)c(C)c1
38.89

###

biological target: androgen receptor (AR) (Homo sapiens, UniProt P10275, T878A); assay: eGFP cellular AR transcription assay (LNCaP eGFP cells, LN-ARR2PB-eGFP); conditions: eGFP IC50 (μM), LNCaP eGFP cells
Grouping rule (IC50): low-valued = under 2 µM, mid-valued = from 2 µM up to 10 µM, high-valued = 10 µM and over

Illustrative cases are given below, each with its answer.
# compound, label value
data = [
    ("Oc1cccc(-c2ccc3ccccc3n2)c1", "low-valued"),
    ("CCOC(=O)c1c(C)[nH]c(C(=O)N[C@@H]2CCCc3ccccc32)c1C", "high-valued"),
]

Categorize the following entry: c1ccc2cc(-c3cscn3)ccc2c1
low-valued

Categorize the following entry: C[C@@H]1C(=O)N(c2ccccc2)C2C=CC=CC21 (stereo partly shown)
high-valued

Categorize the following entry: Cc1ccc2sc(N3CCOCC3)nc2c1C
low-valued

Categorize the following entry: OCc1cccc(-c2ccc3ccccc3n2)c1
high-valued

Categorize the following entry: N#Cc1cc(N2CCOCC2)nc2ccccc12
low-valued

Categorize the following entry: NC(=S)NN=C(c1ccccc1)c1ccccc1
high-valued

Categorize the following entry: Oc1cccc2ccc(N3CCOCC3)nc12
low-valued

###

Biological target: androgen receptor (AR) (Homo sapiens, UniProt P10275, T878A)
Sequence (P10275 1-920 T878A): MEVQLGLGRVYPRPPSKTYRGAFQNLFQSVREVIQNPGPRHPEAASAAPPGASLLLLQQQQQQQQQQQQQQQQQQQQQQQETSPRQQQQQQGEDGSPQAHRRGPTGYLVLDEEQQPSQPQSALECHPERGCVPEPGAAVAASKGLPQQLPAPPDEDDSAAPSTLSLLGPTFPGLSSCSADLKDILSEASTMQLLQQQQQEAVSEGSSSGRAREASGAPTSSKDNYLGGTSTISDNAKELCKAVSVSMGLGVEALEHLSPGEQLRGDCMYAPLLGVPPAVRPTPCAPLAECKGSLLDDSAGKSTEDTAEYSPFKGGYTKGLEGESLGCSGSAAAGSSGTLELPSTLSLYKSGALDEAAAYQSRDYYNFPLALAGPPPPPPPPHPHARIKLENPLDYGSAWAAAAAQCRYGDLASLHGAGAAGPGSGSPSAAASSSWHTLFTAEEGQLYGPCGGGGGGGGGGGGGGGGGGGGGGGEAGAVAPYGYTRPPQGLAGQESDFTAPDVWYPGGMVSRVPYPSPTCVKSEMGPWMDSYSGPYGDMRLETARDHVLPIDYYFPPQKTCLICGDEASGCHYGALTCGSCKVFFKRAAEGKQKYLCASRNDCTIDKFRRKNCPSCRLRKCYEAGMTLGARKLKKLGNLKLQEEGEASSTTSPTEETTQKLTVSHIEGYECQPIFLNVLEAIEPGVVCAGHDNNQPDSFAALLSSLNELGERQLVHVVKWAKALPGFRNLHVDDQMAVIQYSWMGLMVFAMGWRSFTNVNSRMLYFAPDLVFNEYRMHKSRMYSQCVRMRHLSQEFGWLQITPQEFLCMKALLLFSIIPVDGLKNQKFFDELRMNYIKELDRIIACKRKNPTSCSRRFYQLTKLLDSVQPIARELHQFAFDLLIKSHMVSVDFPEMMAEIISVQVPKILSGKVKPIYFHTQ
Experiment: eGFP cellular AR transcription assay (LNCaP eGFP cells, LN-ARR2PB-eGFP)
Conditions: read-out: eGFP IC50
# note: exactly 6 µM is not below, so it is f; use t for IC50 strictly under it

A record lists c1ccc(-c2csc(-c3ccncc3)n2)cc1 . Is its IC50 below 6 µM?
t

A record lists O=C(O)c1sc(N2CCOCC2)nc1-c1ccccc1 . Is its IC50 below 6 µM?
f

A record lists Cc1ncn(-c2csc(N3CCOCC3)n2)c1C . Is its IC50 below 6 µM?
t

A record lists c1ccc(-c2csc(-c3ccccn3)n2)cc1 . Is its IC50 below 6 µM?
f
